# Tested on: primary rat microglia
# condition: rat
For each of the compounds below, state its Fibrin % cell toxicity.
Give the value in % but do not write % after it.

Challenge: // query Fibrin % cell toxicity value for entry CC(C)(C)NC(=O)[C@@H]1CN(Cc2cccnc2)CCN1C[C@@H](O)C[C@@H](Cc1ccccc1)C(=O)N[C@H]1c2ccccc2C[C@H]1O
Response given: 1

Challenge: Would you mind doing OC(Cn1cncn1)(Cn1cncn1)c1ccc(F)cc1F as well?
Response given: 0

Challenge: What about COc1cc2c(c(OC)c1OC)-c1ccc(OC)c(=O)cc1[C@@H](NC(C)=O)CC2 [Colchicine, reference compound] ?
Response given: 12

Challenge: Next up: CCN(CC)CCCC(C)Nc1ccnc2cc(Cl)ccc12 (stereo not shown)
Response given: 0

Challenge: Follow-up entry: O=c1n(CCCN2CCN(c3cccc(Cl)c3)CC2)nc2ccccn12
Response given: 0

Challenge: Let us now turn to CO[C@H]1C[C@@H]2CC[C@@H](C)[C@@](O)(O2)C(=O)C(=O)N2CCCC[C@H]2C(=O)O[C@H]([C@H](C)C[C@@H]2CC[C@@H](O)[C@H](OC)C2)CC(=O)[C@H](C)/C=C(\C)[C@@H](O)[C@@H](OC)C(=O)[C@H](C)C[C@H](C)/C=C/C=C/C=C/1C [Rapamycin, reference compound]
Response given: 3

Challenge: Entry COP(=O)(OC)OC=C(Cl)Cl please
Response given: 1

----------
# System: primary rat microglia
# protocolDetails: Cell toxicity (dead cells, size <150 μm2) in coated fibrin (cFib) assay;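 note: share of dead cells sized under 150 µm2 at 10 µM in fibrin-stimulated microglia HTS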
# condition: primary microglia HTS, fibrin assay, dead cells (size <150 μm2)
Where a SMILES comes first, the peptide text is derived from it. Bridges are numbered along the chain shown (N, C = ends). [ ]: non-standard residue; d: D form. The star is where a group is joined. Ileψ(thiazoline)Cys = CC[C@H](C)[C@H](N)C1=N[C@H](C(=O)*)CS1; dOrn = NCCC[C@@H](N)C(=O)O
quantityKind: Fibrin % cell toxicity (%)
Give just the number in %; leave the unit off.

Challenge: Hello, I am looking for reported Fibrin % cell toxicity with primary rat microglia for CC(=O)NO [Acetohydroxamic Acid] . Could you help?
Response given: 0

Challenge: Do the same for C[C@H]1[C@H](OC(=O)CCC(=O)O)O[C@@H]2O[C@@]3(C)CC[C@H]4[C@H](C)CC[C@@H]1[C@@]24OO3 [Artesunate, reference compound] please
Response given: 1

Challenge: Can you handle O=C(CNC(=O)c1ccc(Cl)cc1)NO [Benurestat] next?
Response given: 1

Challenge: Then what about the compound CNCC(=O)c1ccc(O)c(O)c1.Cl [Adrenolone Hydrochloride] ?
Response given: 0

Challenge: Let us now turn to CCCCNc1ccc(C(=O)OCCOCCOCCOCCOCCOCCOCCOCCOCCOC)cc1 [Benzonatate]
Response given: 1

Challenge: Same again, this time with CCC1(c2ccc(N)cc2)CCC(=O)NC1=O (racemic)
Response given: 0

Challenge: Field entry: C=CCNC(N)=S [Allylthiourea]
Response given: 1

Challenge: Further, for NS(=O)(=O)c1cc2c(cc1Cl)N=C(CSCc1ccccc1)NS2(=O)=O [Benzthiazide] ?
Response given: 1

Challenge: Moving on to CC(=O)Nc1c(I)cc(I)c(C(=O)O)c1I [Acetrizoic acid]
Response given: 1

Challenge: C=C1/C(=C\C=C2/CCC[C@]3(C)[C@@H]([C@H](C)CCCC(C)C)CC[C@@H]23)C[C@@H](O)C[C@@H]1O [Alfacalcidol] ?
Response given: 1

Challenge: Try Br.CN1[C@H]2C[C@H](OC(=O)[C@H](CO)c3ccccc3)C[C@@H]1[C@@H](O)C2 [Anisodamine Hydrobromide] next.
Response given: 1

Challenge: Try the compound [N-]=[N+]=CC(=O)OC[C@H](N)C(=O)O [Azaserine]
Response given: 1

Challenge: What about this compound? Cc1nnc2n1-c1ccc(Cl)cc1C(c1ccccc1)=NC2 [Alprazolam]
Response given: 1

Challenge: Same lookup for C=CCSCC1Nc2cc(Cl)c(S(N)(=O)=O)cc2S(=O)(=O)N1 (stereo not drawn) [Althiazide] , please.
Response given: 1

Challenge: Another: Nc1ncnc2c1ncn2[C@@H]1O[C@H](CO)[C@@H](O)[C@H]1O [Adenosine]
Response given: 1

Challenge: Next compound: COc1ccc(C(=O)CC(=O)c2ccc(C(C)(C)C)cc2)cc1 [Avobenzone]
Response given: 1

Challenge: What about this compound? CC1=NN(c2ccccc2)C(=O)C1
Response given: 1

Challenge: Input CC(=O)NCCCCCC(=O)O [Acexamic Acid]
Response given: 1

Challenge: Again, but for COc1ccc(C2C(=O)c3ccccc3C2=O)cc1 [Anisindione]
Response given: 0

Challenge: Next record, please: Nc1ccc(C(=O)O)cc1 [4-Aminobenzoic Acid]
Response given: 1

Challenge: Record: NC(=O)c1ccc([N+](=O)[O-])cc1Cl [Aklomide]
Response given: 0

Challenge: Then this compound: O=C1c2c(O)cccc2C([C@@H]2O[C@H](CO)[C@@H](O)[C@H](O)[C@H]2O)c2cc(CO)cc(O)c21 (stereo partly drawn) [Aloin]
Response given: 1

Challenge: Same read-out for CCC1(CC)C(=O)NC(=O)NC1=O [Barbital] ?
Response given: 0

Challenge: Again, but for CCOc1nc2cccc(C(=O)OCc3oc(=O)oc3C)c2n1Cc1ccc(-c2ccccc2-c2noc(=O)[nH]2)cc1 [Azilsartan medoxomil]
Response given: 0

Challenge: And for CC(Cc1cccc(C(F)(F)F)c1)NCCOC(=O)c1ccccc1 (stereo not drawn) [Benfluorex] ?
Response given: 1

Challenge: // next record C=CC[C@]1(O)CC[C@H]2[C@@H]3CCC4=CC(=O)CCC4=C3C=C[C@@]21C [Altrenogest]
Response given: 1

Challenge: One more compound: Cc1c(NC(=O)c2cccnc2)c(=O)n(-c2ccccc2)n1C [Nifenazone]
Response given: 85

Challenge: What about this compound? Nc1ncnc2c1ncn2[C@@H]1O[C@H](COP(=O)(O)O)[C@@H](O)[C@H]1O [Adenosine Phosphate]
Response given: 1

Challenge: Follow-up entry: Nc1nccs1 [Aminothiazole]
Response given: 1

Challenge: Would you kindly repeat that for CC(C)c1ccc2oc3nc(N)c(C(=O)O)cc3c(=O)c2c1 [Amlexanox] ?
Response given: 0

Challenge: What do we get for CCC(=O)OCC(=O)[C@@]1(OC(=O)CC)[C@@H](C)C[C@H]2[C@@H]3CCC4=CC(=O)C=C[C@]4(C)[C@@]3(Cl)[C@@H](O)C[C@@]21C [Beclomethasone Dipropionate] ?
Response given: 1

Challenge: Try CCOC(=O)[C@H](CCc1ccccc1)N[C@H]1CCc2ccccc2N(CC(=O)O)C1=O [Benazepril] next.
Response given: 1

Challenge: Could you do the same for CC[C@H](C)[C@H](N)C1=N[C@H](C(=O)N[C@@H](CC(C)C)C(=O)N[C@H](CCC(=O)O)C(=O)N[C@H](C(=O)N[C@H]2CCCCNC(=O)[C@H](CC(N)=O)NC(=O)[C@@H](CC(=O)O)NC(=O)[C@H](Cc3cnc[nH]3)NC(=O)[C@@H](Cc3ccccc3)NC(=O)[C@H]([C@@H](C)CC)NC(=O)[C@@H](CCCN)NC2=O)[C@@H](C)CC)CS1 [Bacitracin, reference compound] ({Ileψ(thiazoline)Cys}-L[dE]IK[dOrn]I[dF]H[dD]N; lactam 4-C) , please?
Response given: 0

----------
# Tested on: LPS-induced microglia activation
# protocolDetails: Image-based assay of LPS-induced microglia activation (HTS and dose response)
# Type: cell-based, rat
# condition: Rattus norvegicus, Microglia, dose response, LPS-induced microglia activation; read-out: LPS IC50
Structures can show the parent of a compound that is named as a salt.
quantityKind: pIC50
Keep it numeric: pIC50 is minus log10 of the concentration in mol/L.

Challenge: GET /values?readout=pIC50&item= CC[C@@]1(O)C(=O)OCc2c1cc1n(c2=O)Cc2cc3c([N+](=O)[O-])cccc3nc2-1 [Rubitecan, reference compound]
Response given: 5.05

Challenge: Also need CC(CN(C)C)CN1c2ccccc2CCc2ccccc21 (stereo not shown) [Trimipramine maleate, reference compound] , thanks.
Response given: 5.30

Challenge: Same for Cc1cccc(C)c1N=C1NCCCS1 [Xylazine hydrochloride, reference compound]
Response given: 5.10

Challenge: For CN1CCN(CCCN2c3ccccc3Sc3ccc(C(F)(F)F)cc32)CC1 [Trifluoperazine dihydrochloride, reference compound] then?
Response given: 5.22

----------
For each entry below, report its inhibition at 10 µM value.
# Tested on: fibrin-induced microglia activation
# protocolDetails: Image-based assay of fibrin-induced microglia activation (HTS and dose response)
# Assay type: cell-based, rat
# condition: Rattus norvegicus, Microglia, primary microglia HTS, 10 μM, fibrin-stimulated, cell size >800 μm^2 as marker of activation; read-out: Fibrin % inhibition
Dear colleague, please return just the value in %, with no unit written.

Challenge: # input molecule: CC(=O)NS(=O)(=O)c1ccc(N)cc1 [Sulfacetamide] ; wanted: its inhibition at 10 µM
Response given: -2

Challenge: Please give the result for Cc1cccc(Nc2ccncc2S(=O)(=O)NC(=O)NC(C)C)c1 [Torasemide] too.
Response given: -29

Challenge: Another molecule: CC[C@H]1OC(=O)[C@H](C)C(=O)[C@H](C)[C@@H](O[C@@H]2O[C@H](C)C[C@H](N(C)C)[C@H]2O)[C@](C)(OC)C[C@@H](C)C(=O)[C@H](C)[C@H]2N(CCCCn3cnc(-c4cccnc4)c3)C(=O)O[C@]12C
Response given: 0

Challenge: Entry CC1(C)O[C@@H]2[C@@H](CO[C@@]3(COS(N)(=O)=O)OC(C)(C)O[C@@H]23)O1 [Topiramate] please
Response given: 4

Challenge: Please answer likewise for Nc1nc(N)c2nc(-c3ccccc3)c(N)nc2n1
Response given: 40

Challenge: Here is the next molecule: O=c1[nH]c(=O)n([C@H]2C[C@H](O)[C@@H](CO)O2)cc1C(F)(F)F
Response given: 10

Challenge: Next molecule up: Cc1cn([C@H]2C=C[C@@H](CO)O2)c(=O)[nH]c1=O
Response given: -17

Challenge: Thanks! And CC1(C)S[C@@H]2[C@H](NC(=O)[C@H](C(=O)O)c3ccsc3)C(=O)N2[C@H]1C(=O)O [Ticarcillin Disodium] ?
Response given: -22

Challenge: Then what about the molecule CCC1=C[C@@H]2CN(C1)Cc1c([nH]c3ccccc13)[C@@](C(=O)OC)(c1cc3c(cc1OC)N(C)[C@H]1[C@@](O)(C(=O)OC)[C@H](OC(C)=O)[C@]4(CC)C=CCN5CC[C@]31[C@@H]54)C2 ?
Response given: -12

Challenge: Would you mind doing COc1ccc(NS(=O)(=O)c2ccc(N)cc2)nn1 as well?
Response given: 21

Challenge: Also check C[N+](C)(C)CCOC(=O)CCC(=O)OCC[N+](C)(C)C
Response given: -54

Challenge: Now consider O=C(O)CCC(=O)Nc1ccc(S(=O)(=O)Nc2nccs2)cc1 .
Response given: 15

Challenge: How about this molecule: COc1cc(C(=O)N2CCOCC2)cc(OC)c1OC
Response given: 2

Challenge: Cool, now COc1cc(C(=O)NS(=O)(=O)c2ccccc2C)ccc1Cc1cn(C)c2ccc(NC(=O)OC3CCCC3)cc12
Response given: -21

Challenge: Try CC(S)C(=O)NCC(=O)O (stereo not drawn) next.
Response given: -8

Challenge: Repeat with CN1CCN(CC/C=C2/c3ccccc3Sc3ccc(S(=O)(=O)N(C)C)cc32)CC1
Response given: -4

Challenge: Lookup CN(C)c1cc(NC(=O)CNC(C)(C)C)c(O)c2c1C[C@H]1C[C@H]3[C@H](N(C)C)C(O)=C(C(N)=O)C(=O)[C@@]3(O)C(O)=C1C2=O
Response given: 7

Challenge: Next entry: CC1=C(CC(=O)O)c2cc(F)ccc2/C1=C\c1ccc([S+](C)[O-])cc1 (stereo not drawn)
Response given: 21

Challenge: Continue with Nc1ccc(S(=O)(=O)Nc2ccnn2-c2ccccc2)cc1
Response given: -4

Challenge: Another molecule: O=C(O[C@H]1C[C@H]2CC[C@@H](C1)[N+]21CCCC1)C(O)(c1ccccc1)c1ccccc1 [Trospium Chloride]
Response given: -39

Challenge: For Nc1ccn([C@H]2CC[C@@H](CO)O2)c(=O)n1 then?
Response given: -10

Challenge: Okay, and c1ccc2c(c1)CCCC2C1=NCCN1 (stereo not drawn) ?
Response given: -29

Challenge: Request: CCCc1nc2c(C)cc(-c3nc4ccccc4n3C)cc2n1Cc1ccc(-c2ccccc2C(=O)O)cc1
Response given: -24

Challenge: What do you have for NS(=O)(=O)Cc1noc2ccccc12 [Zonisamide] ?
Response given: -37

Challenge: Quick one: CC(C)[C@H](N)C(=O)OCCOCn1cnc2c(=O)[nH]c(N)nc21
Response given: 12

Challenge: For Cc1cc(C(C)(C)C)cc(C)c1CC1=NCCN1 then?
Response given: -5

Challenge: One more molecule: NC[C@H]1O[C@H](O[C@H]2[C@H](O)[C@@H](O[C@H]3O[C@H](CO)[C@@H](O)[C@H](N)[C@H]3O)[C@H](N)C[C@@H]2N)[C@H](N)C[C@@H]1O
Response given: 1

Challenge: How about S=P(N1CC1)(N1CC1)N1CC1 ?
Response given: -15

Challenge: Subsequent entry: COc1cc(O)c(C(=O)c2ccccc2)cc1S(=O)(=O)O
Response given: -19

Challenge: Can you check Cc1ccc(/C(=C\CN2CCCC2)c2ccccn2)cc1 next?
Response given: -24
